System: 786-0
method.notes: NCI tumour cell line growth inhibition, 48 h
Calls of active or inactive are those of the source. Rule as the data show it: active = GI50 up to about 1.1 µM and inactive = higher.
test.readout: GI50

Input line: Give recorded GI50. Cc1ccc(NC(=O)CC2C(=O)Nc3ccccc3S2(=O)=O)c(C)c1 (centres undefined)
Output line: 18.3 µM (inactive)

Input line: Indicate the recorded GI50 value for this compound: NCC(O)CNCC/C=C\C/C=C\C/C=C\C/C=C\C/C=C\C/C=C\CCCCC/C=C\CCNCC(O)CN (centres undefined)
Output line: 1.69 µM (inactive)

Input line: Respond only with GI50 recorded for `O=C1[C@@H]2C(c3ccc(Cl)cc3Cl)=NO[C@@H]2C(=O)N1c1ccc(Cc2ccc(N3C(=O)[C@H]4C(c5ccc(Cl)cc5Cl)=NO[C@H]4C3=O)cc2)cc1`
Output line: 45.9 µM (inactive)

Input line: Find the measured GI50 of COC(=O)C1C(=O)C=CN([C@H](C)c2ccccc2)[C@@H]1Cc1ccc(OC)c(OCc2ccccc2)c1I (some centres undefined) and report it.
Output line: 16.4 µM (inactive)

----------
System: PC-3
method.notes: NCI tumour cell line growth inhibition, 48 h
Calls of active or inactive are those of the source. Cut-off read from the data, not from the text of the source: active = GI50 up to about 1.1 µM and inactive = higher.
test.readout: GI50

Input line: Identify the reported GI50 for the following entry. `COc1ccc(NC(=S)Nc2cc(C)ccn2)cc1`
Output line: > 100 µM (inactive)

Input line: Determine from records and report GI50 for CC1=C([S+]([O-])c2ccc(C)cc2)CCC2(CCCCO2)O1 (centres undefined)
Output line: > 100 µM (inactive)

Input line: Answer with reported GI50 of CC1(C)[C@@H]2CC[C@@]1(C)C1(S[S+]1[O-])C21Cc2ccccc2C1 (some centres undefined)
Output line: 17.9 µM (inactive)

Input line: Provide GI50 value for the following compound: Clc1ccc(C(OCn2ccnc2)c2nc3ccccc3[nH]2)c(Cl)c1 (centres undefined)
Output line: 35.2 µM (inactive)

Input line: Determine from records and report GI50 for `Cc1ccccc1C(=N)c1ccccc1Cc1cccc2ccccc12`
Output line: 40.6 µM (inactive)

Input line: Quote GI50 reported for `CN(C)c1ccc(/C=N/NC(=S)Nc2ccccc2)cc1` please.
Output line: > 100 µM (inactive)

Input line: Give me measured GI50, please, for this compound: `C=CCCCCCCC#CCCCCCCCCCC[C@@H]1C(=O)O[C@H](C)[C@@H]1O.CCCCCCCCC#CCCCCCCCCCC[C@@H]1C(=O)O[C@H](C)[C@@H]1O`
Output line: 13.1 µM (inactive)

Input line: Determine from records and report GI50 for `C/N=C(\N)N/N=C(\C)c1ccc2oc3ccc(/C(C)=N/N/C(N)=N/C)cc3c2c1`
Output line: 3.01 µM (inactive)

Input line: Supply GI50 value. Item: CC(=O)OCC1OC(OCC2OC(N3C(=S)N[C@H]([C@@H](O)[C@H](O)[C@H](O)CO)[C@H]3O)C(OC(C)=O)C(OC(C)=O)C2OC(C)=O)C(OC(C)=O)C(OC(C)=O)C1OC(C)=O (some centres undefined)
Output line: > 100 µM (inactive)

----------
Hi there, I'd appreciate the recorded GI50 for every entry that follows.
System: BT-549
method.notes: NCI tumour cell line growth inhibition, 48 h
Activity calls are given as the source filed them. Cut-off read from the data, not from the text of the source: active = GI50 up to about 1.1 µM and inactive = higher.

Input line: In one line, give reported GI50 of the entry `CCN(CC)CCNc1ccc(/N=N/c2ccc(S(N)(=O)=O)cc2)c2ccccc12` .
Output line: 13.6 µM (inactive)

Input line: Give me measured GI50, please, for this compound: `CC(=O)OCCn1c(Cc2ccc(Cl)cc2)nn(C(C)=O)c1=O`
Output line: > 100 µM (inactive)

Input line: Retrieve GI50 measured for `Cc1cc(C)c2c(SCc3ccc(Cl)cc3Cl)nc(N)nc2n1` and print it.
Output line: > 100 µM (inactive)

Input line: Quick one: give measured GI50 for `COc1ccc(-c2c(C#N)c(NC(=S)NC(=O)c3ccccc3)nc3c2CCCC3)cc1OC`
Output line: > 100 µM (inactive)

Input line: Quick one: give measured GI50 for `CCN(CC)C(=C(C(Cl)=C(Cl)Cl)[N+](=O)[O-])N(CC)CC`
Output line: 83 µM (inactive)

Input line: Supply recorded GI50 for `O=C(Nc1sccc1S(=O)(=O)c1ccccc1)c1ccccc1` here.
Output line: > 100 µM (inactive)

Input line: Give a short answer stating reported GI50 for `Cc1cc(N)ccc1C=O` .
Output line: > 100 µM (inactive)

Input line: Recall and state the measured GI50 for CCOC(=O)C1=CC(C)(C(=O)OCC)Nc2c(nc(OC)n(C)c2=O)N1 (stereo not drawn) .
Output line: > 10 µM (inactive)

Input line: Identify measured GI50 corresponding to `COC(=O)/C(C#N)=C(\Nc1ccccc1)N1CCCCC1`
Output line: > 100 µM (inactive)

Input line: Output measured GI50 for this item: CCOC(=O)C12C3CCC1C2C(=O)C3 (stereo not drawn)
Output line: > 100 µM (inactive)

Input line: Quick one: give measured GI50 for `COc1ccc(NC(=S)Nc2cc(C)ccn2)cc1`
Output line: > 100 µM (inactive)

Input line: Please supply the value of reported GI50 for the item `CC1=C(C(=O)Nc2ccc(Cl)c(C(=O)OC(C)C)c2)SCCO1`
Output line: > 100 µM (inactive)

Input line: For the compound `CCN(Cc1cc(Cl)cc(C)c1O)Cc1c(O)ccc2ccccc12` , report GI50.
Output line: 13.3 µM (inactive)

Input line: Retrieve GI50 measured for `Cn1c(=O)c2ccccc2c2ccccc21` and print it.
Output line: 39.6 µM (inactive)

Input line: Read the entry OC1CCCCCCCCCCC1[S+]1CCCC1.O[B-](F)(F)F (stereo not drawn) and write its reported GI50.
Output line: > 100 µM (inactive)

Input line: Quick one: give measured GI50 for `O=C1N=C2SC=C(NC(=S)Nc3ccccc3)N2NC12c1ccccc1-c1ccccc12`
Output line: > 10 µM (inactive)

Input line: Fill in GI50 for record `COc1ccc(OC)c2cc(Cc3ccc(N(C)C)cc3)c(=O)c(Cc3ccc(N(C)C)cc3)cc12`
Output line: > 100 µM (inactive)

Input line: Give GI50 for CC1=C([S+]([O-])c2ccc(C)cc2)CCC2(CCCCO2)O1 (stereo not drawn)
Output line: > 100 µM (inactive)

Input line: Please look at this compound and report its GI50: `CC(C)(C)c1ccc2c(c1)C#Cc1cc(C(C)(C)C)ccc1OCCCO2`
Output line: > 100 µM (inactive)

Input line: Report GI50 for CNC1NC(=O)c2ccccc2N1Cc1ccc(F)cc1 (stereo not drawn)
Output line: > 100 µM (inactive)

Input line: Identify measured GI50 associated with `O=C1Oc2ccccc2C(=O)/C1=C/N1C(=O)N/C(=C\c2cccc(O)c2)C1=O`
Output line: 21.8 µM (inactive)

Input line: Indicate its recorded GI50; the compound in question is `N#CCOc1cccc(C2(N3CC=CCC3)CCCCC2)c1`
Output line: > 100 µM (inactive)

Input line: Kindly indicate its recorded GI50. Item: `COc1ccc(/C=N/NC(=O)c2cnc3[nH]c(=O)n(C)c(=O)c3c2)cc1`
Output line: > 100 µM (inactive)

The origin of these recorded values is ChEMBL document CHEMBL1201862.
